The reported measurements were obtained from patent US20260327244A1.

biological target: WT HRAS (aa2-184) (Homo sapiens)
Sequence (P01112 2-184): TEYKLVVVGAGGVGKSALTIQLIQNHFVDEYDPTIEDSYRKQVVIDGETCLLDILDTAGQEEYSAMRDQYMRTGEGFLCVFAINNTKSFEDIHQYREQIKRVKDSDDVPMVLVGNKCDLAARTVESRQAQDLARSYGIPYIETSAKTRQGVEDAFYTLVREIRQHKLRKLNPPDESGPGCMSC
pKd: −log10 of the molar value. Counter-ions that a name gives are not always drawn.
Reported pKd values follow for various compounds
PROPERTY MEASURED: pKd

| COMPOUND | PROPERTY MEASURED | VALUE MEASURED |
| --- | --- | --- |
| Oc1cc(-c2ncc3c(N4C[C@@H]5C[C@H](C4)[C@H](O)C5)nc(OC[C@@]45CCCN4C[C@H](F)C5)nc3c2F)c2c(F)c(F)ccc2c1 | pKd | 6.70 |
| Oc1cc(-c2ncc3c(N4C[C@H]5CC[C@@H](C4)O5)nc(OC[C@@]45CCCN4C[C@H](F)C5)nc3c2F)c2c(F)c(F)ccc2c1 [Example 16, acetic acid salt] | pKd | < 5.00 |
| C#Cc1cccc2cc(O)cc(-c3ncc4c(N5CC[C@H](CC#N)C5)nc(OC[C@@]56CCCN5C[C@H](F)C6)nc4c3F)c12 | pKd | < 5.00 |

---

biological target: wild-type (WT) KRAS (aa1-185) (Homo sapiens, UniProt P01116); construct: wild-type (WT) KRAS (aa1-185); experiment: KRAS Surface Plasma Resonance (SPR) binding assay, WT KRAS; conditions: SPR at 10 °C, geometric mean when tested more than once
Sequence (P01116 1-185 isoform P01116-2): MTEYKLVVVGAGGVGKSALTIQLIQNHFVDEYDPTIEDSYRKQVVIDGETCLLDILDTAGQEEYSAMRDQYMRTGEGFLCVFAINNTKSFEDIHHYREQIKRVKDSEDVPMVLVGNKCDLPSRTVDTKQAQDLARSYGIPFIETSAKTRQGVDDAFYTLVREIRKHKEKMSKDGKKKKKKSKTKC

| COMPOUND | Kd |
| --- | --- |
| C#Cc1c(F)ccc2cc(O)cc(-c3ncc4c(N5C[C@@H]6C[C@H](C5)[C@H](O)C6)nc(OC[C@@]56CCCN5C[C@H](F)C6)nc4c3F)c12 | 0.03 nM |
| C#Cc1cccc2cc(O)cc(-c3ncc4c(N5CCC[C@@](C)(CC#N)C5)nc(OC[C@@]56CCCN5C[C@H](F)C6)nc4c3F)c12 | 0.398 nM |
| C#Cc1cccc2cc(O)cc(-c3ncc4c(N5C[C@H]6CC[C@@H](C5)O6)nc(OC[C@@]56CCCN5C[C@H](F)C6)nc4c3F)c12 | 0.422 nM |
| CC(=O)N1CCN(c2nc(OC[C@@]34CCCN3C[C@H](F)C4)nc3c(F)c(-c4cc(O)cc5ccc(F)c(F)c45)ncc23)C[C@@H]1CC#N | 1.25 nM |
| Oc1cc(-c2ncc3c(N4C[C@@H]5C[C@H](O)[C@@H]5C4)nc(OC[C@@]45CCCN4C[C@H](F)C5)nc3c2F)c2c(Cl)cccc2c1 (relative stereo) | 11.9 nM |
| C#Cc1c(F)ccc2cccc(-c3nc4c5c(nc(OC[C@@]67CCCN6C[C@H](F)C7)nc5c3F)N3CCCC[C@H]3CO4)c12 | 5.75 nM |
| Oc1cc(-c2ncc3c(N4C[C@H]5C[C@@H](O)[C@H]5C4)nc(OC[C@@]45CCCN4C[C@H](F)C5)nc3c2F)c2c(Cl)cccc2c1 (relative stereo) | 1.76 nM |
| C#Cc1cccc2cc(O)cc(-c3ncc4c(N5C[C@@H]6C[C@H](C5)[C@H](O)C6)nc(OC[C@@]56CCCN5C[C@H](F)C6)nc4c3F)c12 | 0.019 nM |
| N#CC[C@@H]1CCCN(c2nc(OC[C@@]34CCCN3C[C@H](F)C4)nc3c(F)c(-c4cc(O)cc5ccc(F)c(F)c45)ncc23)C1 | 0.022 nM |
| C#Cc1c(F)ccc2cc(O)cc(-c3nc4c5c(nc(OC[C@@]67CCCN6C[C@H](F)C7)nc5c3F)N3CCC[C@@H](O)[C@H]3CO4)c12 | 0.061 nM |
| C#Cc1cccc2cc(O)cc(-c3ncc4c(N5C[C@H](CC#N)[C@@H](F)C5)nc(OC[C@@]56CCCN5C[C@H](F)C6)nc4c3F)c12 (mixture of isomers) | 2.55 nM |
| C#Cc1cccc2cc(O)cc(-c3ncc4c(N5C[C@H]6C[C@@H](O)[C@@H](C5)O6)nc(OC[C@@]56CCCN5C[C@H](F)C6)nc4c3F)c12 (relative stereo) | 0.092 nM |
| Oc1cc(-c2ncc3c(N4C[C@@H]5C[C@H](C4)[C@H](O)C5)nc(OC[C@@]45CCCN4C[C@H](F)C5)nc3c2F)c2ccccc2c1 | 0.362 nM |
| C#Cc1c(F)ccc2cc(O)cc(-c3nc4c5c(nc(OC[C@@]67CCCN6C[C@H](F)C7)nc5c3F)N(CCO)CCO4)c12 | 0.014 nM |
